tested_system: T1, recombinant cyno monkey PCSK9 protein (cyno monkey, UniProt A8T666 31-692 (rhesus entry), limits assumed, biotin-labelled in the ELISA (Biotin labeling kit))
T1 construct: also called cyno PCSK9; Cyno Monkey PCSK9-His
T1 sequence (A8T666 31-692 limits assumed): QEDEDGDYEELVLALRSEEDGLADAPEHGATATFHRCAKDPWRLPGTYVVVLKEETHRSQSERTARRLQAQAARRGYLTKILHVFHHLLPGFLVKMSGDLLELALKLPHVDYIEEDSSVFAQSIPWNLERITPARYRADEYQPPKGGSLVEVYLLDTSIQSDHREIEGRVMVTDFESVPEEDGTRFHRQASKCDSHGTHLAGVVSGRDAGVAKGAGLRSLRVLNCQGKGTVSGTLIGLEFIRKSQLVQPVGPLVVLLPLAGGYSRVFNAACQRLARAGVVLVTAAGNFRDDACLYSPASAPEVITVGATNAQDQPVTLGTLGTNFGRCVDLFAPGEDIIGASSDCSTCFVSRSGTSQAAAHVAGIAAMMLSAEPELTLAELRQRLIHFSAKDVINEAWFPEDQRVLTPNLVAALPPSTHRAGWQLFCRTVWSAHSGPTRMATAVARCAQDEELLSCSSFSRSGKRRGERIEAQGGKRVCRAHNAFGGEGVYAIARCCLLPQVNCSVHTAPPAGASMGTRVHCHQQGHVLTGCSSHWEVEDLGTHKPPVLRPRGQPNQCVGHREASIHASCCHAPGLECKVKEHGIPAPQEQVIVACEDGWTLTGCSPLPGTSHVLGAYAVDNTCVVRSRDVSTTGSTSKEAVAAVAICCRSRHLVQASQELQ
procedure_text: ELISA, biotin-cyno PCSK9 on streptavidin plate; antibody 0.000067 nM
metric_name: OD450 nm (OD450 nm)
Please respond with the number in OD450 nm and leave the unit unwritten.

## Input Output OD450 nm of 139G1C5, chimeric anti-PCSK9 mAb purified from hybridoma (antibody, V domains shown, From Harbour H2L2 mice: human variable regions, rat constant regions) VH: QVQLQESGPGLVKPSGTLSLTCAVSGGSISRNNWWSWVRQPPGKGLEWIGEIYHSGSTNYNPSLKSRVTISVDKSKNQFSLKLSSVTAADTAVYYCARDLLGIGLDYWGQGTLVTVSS VL: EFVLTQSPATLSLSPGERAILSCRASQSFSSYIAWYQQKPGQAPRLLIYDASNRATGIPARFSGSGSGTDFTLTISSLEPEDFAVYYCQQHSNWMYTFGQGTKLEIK
## Output 0.23
